Test system: Zika virus NS2B-NS3 protease (unlinked)
experimental protocol: Optimization of GU AMC qHTS for Zika virus inhibitors: Unlinked NS2B-NS3 protease assay (AID 1347151); also: nearly all actives have a fitted effect of over 80% in size
condition set: recombinant ZIKV NS2B-NS3 protease, fluorogenic AMC substrate; series mostly up to 52.5 µM
Records with an inconclusive call do not appear. Calls of active or inactive are those of the source. Calls follow the shape of the dose curve; as a rule, active = well fitted inhibition curve with a large enough effect; inconclusive = small, poorly fitted or top-dose-only effect; inactive = no such curve, though single readings can be large or run the other way.
Form entry, call: pick from y = active, n = inactive

See these solved cases before continuing.
molecule=NC(=NCCC[C@H](N)C(=O)O)N[N+](=O)[O-] system_name="Zika virus NS2B-NS3 protease (unlinked)" label_value=n
molecule=CCCN(CCC)[C@@H]1CCc2ccc(O)cc2C1 system_name="Zika virus NS2B-NS3 protease (unlinked)" label_value=n
molecule=COC(=O)[C@@H](N)CCCN=C(N)N[N+](=O)[O-] system_name="Zika virus NS2B-NS3 protease (unlinked)" label_value=n
molecule=NCCc1c[nH]c2ccccc12 system_name="Zika virus NS2B-NS3 protease (unlinked)" label_value=n
molecule="CC(C)NC(C)Cc1ccc(I)cc1 (stereo not drawn)" system_name="Zika virus NS2B-NS3 protease (unlinked)" label_value=n
molecule=C[N+](C)(C)CC(=O)O system_name="Zika virus NS2B-NS3 protease (unlinked)" label_value=n
molecule="O=C(Cc1ccc(Cl)c(Cl)c1)N1CCCCC1CN1CCCC1 (stereo not drawn)" system_name="Zika virus NS2B-NS3 protease (unlinked)" label_value=n
molecule=O=C(O)CC[N+](=O)[O-] system_name="Zika virus NS2B-NS3 protease (unlinked)" label_value=n

**Query** Answer briefly: the call reported for CC(Cc1ccc(O)cc1)NCC(O)c1cc(O)cc(O)c1 (stereo not drawn) in this assay.
**Result** n

**Query** Answer briefly: the call reported for CC(=O)[C@H]1CCC2C3CC[C@H]4C[C@H](O)CC[C@]4(C)C3CC[C@@]21C (stereo partly drawn) in this assay.
**Result** n

**Query** Answer briefly: the call reported for `Cc1nccc2c1[nH]c1ccccc12` in this assay.
**Result** y

**Query** Answer briefly: the call reported for NC(CP(=O)(O)O)C(=O)O (stereo not drawn) in this assay.
**Result** n

**Query** Answer briefly: the call reported for `CCCCc1ccc(C(=O)O)nc1` in this assay.
**Result** n

###

system name: Nucleoprotein (Lymphocytic choriomeningitis virus (strain Armstrong)) (UniProt P09992)
Sequence (P09992 whole entry, looked up): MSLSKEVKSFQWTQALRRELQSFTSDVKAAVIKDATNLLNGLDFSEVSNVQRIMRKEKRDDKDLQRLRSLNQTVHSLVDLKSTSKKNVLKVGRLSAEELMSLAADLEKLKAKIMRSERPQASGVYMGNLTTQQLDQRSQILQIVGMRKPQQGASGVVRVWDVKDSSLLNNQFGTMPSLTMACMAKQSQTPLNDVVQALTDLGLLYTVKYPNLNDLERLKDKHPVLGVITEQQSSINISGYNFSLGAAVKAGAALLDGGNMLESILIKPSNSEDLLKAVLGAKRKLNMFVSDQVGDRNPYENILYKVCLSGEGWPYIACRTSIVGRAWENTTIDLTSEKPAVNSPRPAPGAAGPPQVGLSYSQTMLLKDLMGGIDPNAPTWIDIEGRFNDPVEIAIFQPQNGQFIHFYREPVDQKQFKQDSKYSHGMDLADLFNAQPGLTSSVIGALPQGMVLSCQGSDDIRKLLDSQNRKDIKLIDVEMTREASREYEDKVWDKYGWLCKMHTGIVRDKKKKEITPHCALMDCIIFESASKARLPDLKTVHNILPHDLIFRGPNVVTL
experimental protocol: qHTS for Inhibitors of the Functional Ribonucleoprotein Complex (vRNP) of Lymphocytic Choriomeningitis Arenaviruses (LCMV): LCMV Primary Screen - GLuc reporter signal (AID 1347086); also: nearly all actives have a fitted effect of over 70% in size
condition set: LCMV minigenome vRNP cell assay, Gaussia luciferase reporter; series mostly up to 57.5 µM
Records with an inconclusive call do not appear. The source made the active and inactive calls. Calls come from the whole dose curve.
metric: Potency

Examples with answers:
compound=Nc1ccc(Cl)cc1 metric=Potency value_observed=inactive
compound="CC(C)CCCC(C)CCCC(C)CCCCC(C)CCCC(C)CCCC(C)C (stereo unspecified)" metric=Potency value_observed=inactive
compound=Cc1cc2c(cc1C1(c3ccc(C(=O)O)cn3)CC1)C(C)(C)CCC2(C)C metric=Potency value_observed=inactive
compound=c1ccc2c(-c3cnn4cc(-c5ccc(N6CCNCC6)cc5)cnc34)ccnc2c1 metric=Potency value_observed=inactive

Proceed to the following item.
**Query** Look up Nucleoprotein (Lymphocytic choriomeningitis virus (strain Armstrong)) (UniProt P09992) data: Potency of `CCC(=C(c1ccccc1)c1ccc(OCCN(C)C)cc1)c1ccccc1` , then report it.
**Result** inactive
